Record form. Attribute: folding enthalpy. Fill in for each entry.
Method: folding enthalpy; higher = less favourable; fluorescence melt of hairpins on a sequencing array, two-state fit
Measurement Context: sodium 0.088 M
Give bare numbers, in kcal/mol.

GGTGCATCGAAAGATACC (((..(((....)))))); -10.2
GAGCGACCGAAAGGTCTC (((..(((....)))))); -10.2
GAGCTGGGAAACTAGCTC (((((.(....).))))); -38.7

Fill in folding enthalpy for each of the 4 sequences listed.
1. GTGACTGGAAACAGTCGC (.(((((....))))).)
2. GATCCCCTCAGGGATC ((((((....))))))
3. GATCTCTAAAGAGATC ((((((....))))))
4. GCGTTGGCGAAAGCCCGC (((..(((....))))))

Result:
-30.6
-41.7
-33.4
-18.8

###

Method: folding enthalpy; higher = less favourable; fluorescence melt of hairpins on a sequencing array, two-state fit
Measurement Context: sodium 0.088 M
Hi there, I'd appreciate the recorded folding enthalpy for every entry that follows.
Answers are plain numbers, in kJ/mol.

GGTAGCGGAAACACTACC (((((.(....).))))); -129
GGGTCTGGAAACAGGTCC ((..(((....)))..)); -116
GGCTACGGAAACGTGGTC (.(.(((....))).).); -116
GATCAGCTAGCTGATC ((((((....)))))); -201
GATCTGACCGCAGATC ((((((....)))))); -115

// each listed sequence needs a value for folding enthalpy
1. GCTCCGCGAAAGCGCAGC (((.(((....))).)))
2. GACTGCGAAAGCAAGGTC ((((((....)))..)))
3. CGTCCCCGGAAACGGACG (((..(((....))))))

Result:
-125
-63.8
-88.2

###

Method: folding enthalpy; higher = less favourable; fluorescence melt of hairpins on a sequencing array, two-state fit
Measurement Context: sodium 0.088 M
Kindly supply the reported folding enthalpy values for the records listed here.
Give bare numbers, in kcal/mol.

GTTTTTGCGAAAGCAAAC (((..(((....)))))); -11.9
GTTTCCGAAAGGATTAAC ((((((....)))..))); -11.6
GCAGAGAAATCTGC (((((....))))); -23.1
CGATCGGAAACGATATCG ((((((....)))..))); -18.4
CGACCGGAAACGGTTCG ((((((....))).))); -20.1
CGAGCGGAAACGCATTCG ((((((....)))..))); -14.8
GGGAAAGGAAACTTTTCC ((.((((....)))).)); -27
GGATTACCGAAAGGTTCC (((..(((....)))))); -13.5
GTCGCGGGAAACCGCAAC ((.((((....)))).)); -13.3
GTGGGCGGAAACGCTCAC (((.(((....))).))); -34.3

Hey, quick one: what's folding enthalpy for each of these?
1. GGACTCGAAAGAGGCTCC ((((((....)))..)))
2. GATCTTTGTTAAGATC ((((((....))))))

Result:
[-13.3, -33.6]
